Tested on: U-2932
Experiment: Anti-proliferative activity, MTS assay, U-2932
Format: cell-based
Conditions: Homo sapiens, U2932, DLBCL, read-out: PRT382 IC50 (anti-proliferative)

- compound: "CON=c1nc[nH]c2c1ccn2[C@@H]1O[C@H]([C@H](O)c2ccc(Cl)c(Cl)c2)[C@@H](O)[C@H]1O.Cl [PRT382]"
  IC50, nM: 12

====

System: Mec-1 cells
Assay: Cell growth curves over 12 days, Mec-1
Type: cell-based
Conditions: Mec-1, 100 nM, day 3
Values of Rep 2 Live Cells [Fold Change] strictly less than 5 Fold Change map to met, and values of at least 5 Fold Change map to not met.

- mol: "CON=c1nc[nH]c2c1ccn2[C@@H]1O[C@H]([C@H](O)c2ccc(Cl)c(Cl)c2)[C@@H](O)[C@H]1O.Cl"
  assayed_target: "Mec-1 cells"
  class_assignment: "not met"
- mol: "O=C(NC[C@H](O)CN1CCc2ccccc2C1)c1cc(NC2COC2)ncn1"
  assayed_target: "Mec-1 cells"
  class_assignment: "not met"
- mol: "Nc1nc2cc(CC[C@H]3C[C@@H](n4ccc5c(N)ncnc54)[C@H](O)[C@@H]3O)ccc2cc1Br"
  assayed_target: "Mec-1 cells"
  class_assignment: "met"
- mol: "Nc1ncnc2c1ccn2[C@@H]1O[C@H]([C@H](O)c2ccccc2)[C@@H](O)[C@H]1O"
  assayed_target: "Mec-1 cells"
  class_assignment: "met"

====

Assay: Pharmacokinetic study, oral gavage to CD-1 mice, blood analyzed by LC-MS/MS
Assay type: in vivo
Conditions: mouse, whole blood, po; 10 mg/kg, 1d-single dose, male CD-1 mice, fed, blood analysis, 0.5%CMC+0.5%Tween80

- molecule: "CON=c1nc[nH]c2c1ccn2[C@@H]1O[C@H]([C@H](O)c2ccc(Cl)c(Cl)c2)[C@@H](O)[C@H]1O.Cl [PRT382]"
  Cmax, ng/mL: 3240

====

Tested on: HG3 cells
Test: Cell growth curves over 12 days, HG3
Assay type: cell-based
Conditions: HG3, 1 nM, day 10
Values of Rep 1 Live Cells [Fold Change] strictly less than 300 Fold Change map to true (1), and values of at least 300 Fold Change map to false (0).

- molecule: "O=C(NC[C@H](O)CN1CCc2ccccc2C1)c1cc(NC2COC2)ncn1"
  assayed_target: "HG3 cells"
  class_assignment: "true (1)"
- molecule: "CON=c1nc[nH]c2c1ccn2[C@@H]1O[C@H]([C@H](O)c2ccc(Cl)c(Cl)c2)[C@@H](O)[C@H]1O.Cl"
  assayed_target: "HG3 cells"
  class_assignment: "false (0)"
- molecule: "Nc1nc2cc(CC[C@H]3C[C@@H](n4ccc5c(N)ncnc54)[C@H](O)[C@@H]3O)ccc2cc1Br"
  assayed_target: "HG3 cells"
  class_assignment: "true (1)"
- molecule: "Nc1ncnc2c1ccn2[C@@H]1O[C@H]([C@H](O)c2ccccc2)[C@@H](O)[C@H]1O"
  assayed_target: "HG3 cells"
  class_assignment: "true (1)"
- molecule: "Nc1ncnc2c1ccn2C1OC(C(O)c2ccc(Cl)c(F)c2)C(O)C1O (centres unmarked)"
  assayed_target: "HG3 cells"
  class_assignment: "true (1)"

====

Experiment: Pharmacokinetic study, oral gavage to CD-1 mice, blood analyzed by LC-MS/MS
Type: in vivo
Details: 30 mg/kg, 1d-single dose, male CD-1 mice, fed, blood analysis, time 24 h

- mol: "CON=c1nc[nH]c2c1ccn2[C@@H]1O[C@H]([C@H](O)c2ccc(Cl)c(Cl)c2)[C@@H](O)[C@H]1O.Cl"
  blood concentration at time point 24 h: "0 ng/mL"
